Target: HTRA2, O43464
Sequence (O43464 355-458): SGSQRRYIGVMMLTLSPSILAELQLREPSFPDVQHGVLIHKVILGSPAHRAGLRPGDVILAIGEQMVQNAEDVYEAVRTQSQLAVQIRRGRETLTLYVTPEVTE
Experiment: holdup assay
Set-up: key: below the threshold = too weak to quantify, mostly under pKd 3.1 to 4
Settings: plain residues with an end cap or a label only (N-terminal biotin on a linker: ahx)

{"columns": ["Binder", "pKd"],
 "data": [
  ["PSASCAVTAA [PDLIM4, P50479;P50479-2]", "below the threshold"],
  ["LSDPSVSTVV [GRIN1, Q05586;Q05586-2]", "below the threshold"],
  ["TVICWPGSLV [LNX2, Q8N448]", 4.42],
  ["RAVEEEESRF [PSCDBP, O60759]", "below the threshold"],
  ["HNAFLSVTTV [PDZRN4, Q6ZMN7]", "below the threshold"],
  ["RRRKRKRTYL [HPV49-L2, P36762]", 3.49],
  ["GYDWGPATDL [TJP3, O95049]", "below the threshold"],
  ["NRKREIFSNF [NHERF2, Q15599]", "below the threshold"],
  ["SDSSGQEYSL [KCTD3, Q9Y597]", "below the threshold"],
  ["ESLLLGPSNF [SHROOM4, Q9ULL8]", "below the threshold"]
]}
